# key: entry, value: Inhibition
- Tested on: Staphylococcus aureus
- CONDITION PARAMETERS: Concentration 20 uM; ASSAY_TEST Inhibition of Bacterial Growth; detection method Absorption (OD600); MEDIA CAMHB; plate type 384well; NBS; CORNING #3640; time 18 hr
- Description: Antibacterial activity against Staphylococcus aureus MRSA ATCC 43300 (CO-ADD:GP_020); MIC in CAMBH media, using NBS plates, by OD(600)
Potency and affinity values are given separately.

COMPOUND: Cc1cc(C2=NOC(c3cc(Cl)c(F)c(Cl)c3)(C(F)(F)F)C2)ccc1C(=O)NCc1ccc2c(c1)C(C)(C)OB2O (stereo not given)
TARGET OF ASSAY: Staphylococcus aureus
Inhibition [%]: 14.07

COMPOUND: Nc1c2c(nc3sc4c(c13)CCCC4)CCCC2
TARGET OF ASSAY: Staphylococcus aureus
Inhibition [%]: 6.99

COMPOUND: CO[C@@H]1CN(c2ccc(C#CC3(O)CN4CCC3CC4)c(Cc3ccccc3)n2)C[C@H]1O (stereo not given in full)
TARGET OF ASSAY: Staphylococcus aureus
Inhibition [%]: -11.47

COMPOUND: Cc1cccc(C(=O)Nc2ccnc(N(C)C3CCN(CC(C)C)CC3)c2)c1
TARGET OF ASSAY: Staphylococcus aureus
Inhibition [%]: 17.27

COMPOUND: CO[C@@H](C(=O)N1Cc2[nH]nc(NC(=O)c3ccc(N4CCN(C)CC4)cc3)c2C1)c1ccccc1
TARGET OF ASSAY: Staphylococcus aureus
Inhibition [%]: 12.13

* * *

- System: Escherichia coli
- CONDITION PARAMETERS: Concentration 20 uM; ASSAY_TEST Inhibition of Bacterial Growth; detection method Absorption (OD600); MEDIA CAMHB; plate type 384well; NBS; CORNING #3640; time 18 hr
- Description: Antibacterial activity against Escherichia coli ATCC 25922 (CO-ADD:GN_001); MIC in CAMBH media using NBS plates, by OD(600)
Entries with a potency or affinity are not part of this list.
// values below are reported Inhibition
METRIC: Inhibition (%)

COMPOUND: CC1(C)OB(O)c2ccc(C3=NOC(c4cc(Cl)c(F)c(Cl)c4)(C(F)(F)F)C3)cc21 (stereo unspecified)
QUANTITATIVE RESULT: 11.05
//
COMPOUND: Cc1cc(C2=NOC(c3cc(Cl)c(F)c(Cl)c3)(C(F)(F)F)C2)ccc1C(=O)NCc1ccc2c(c1)C(C)(C)OB2O (stereo unspecified)
QUANTITATIVE RESULT: 6.28
//
COMPOUND: CO[C@@H]1CN(c2ccc(C#CC3(O)CN4CCC3CC4)c(Cc3ccccc3)n2)C[C@H]1O (stereo partly specified)
QUANTITATIVE RESULT: -3.76
//
COMPOUND: CC(=O)Oc1ccccc1C(=O)Nc1ncc([N+](=O)[O-])s1 [NITAZOXANIDE]
QUANTITATIVE RESULT: -2.79
//
COMPOUND: CNCCC(Oc1ccc(C(F)(F)F)cc1)c1ccccc1 (stereo unspecified)
QUANTITATIVE RESULT: 3
//
COMPOUND: Cc1cccc(C(=O)Nc2ccnc(N(C)C3CCN(CC(C)C)CC3)c2)c1
QUANTITATIVE RESULT: 7.9

The values you see were collected from ChEMBL document CHEMBL4513149.
